system: PriA–SSB C-terminal tail interaction (Klebsiella pneumoniae); assay: blocks PriA binding to SSB C-terminal tail, primary screen, biochemical, AlphaScreen (AID 1272365); settings: AlphaScreen SSBct-PriA binding, biotinylated peptide; at 33 µM, stronger effect = higher value;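 on inhibition: plate controls were negative control peptide for no effect and reference peptide for full effect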
Out of some 430,000 compounds screened, about 2,600 (0.6%) were called active. For the sample, actives were picked, then their nearest neighbours and some compounds at random.
observable: inhibition (%)
State the answer as a number, implicitly in %.

inhibition reading for `Nc1[nH]nc2nc(-c3ccccn3)ccc12` : 94.2

inhibition reading for `COc1ccc(-c2nnc(SC(=O)N3c4ccccc4Sc4ccccc43)o2)cc1` : 42.2

inhibition reading for `CN1CCCc2cc(CCNC(=O)C(=O)Nc3ccc4c(c3)OCCO4)ccc21` : -11

inhibition reading for `CSc1ccccc1NC(=O)C(=O)NC[C@]1(O)CCc2ccccc2C1` : -6

inhibition reading for COc1ccc(C(=O)CC(SCCO)c2ccc(F)cc2)cc1OC (stereo unspecified) : -1

inhibition reading for `Fc1cc(Br)ccc1NC(=S)Nc1cccnc1` : -8.39

inhibition reading for `Oc1ccc(C=NNC(=S)Nc2cccnc2)c(O)c1O` : 100

inhibition reading for `O=C(NN=Cc1cccc2ccccc12)c1cccnc1` : -10.5

inhibition reading for Cc1ccc2c(c1)C1CN(C)CCC1N2C(=O)c1ccccc1NS(=O)(=O)c1ccc(F)cc1C (stereo unspecified) : -3.86

inhibition reading for `COc1cc(NC(=O)NCCc2ccc3c(c2)CCCN3C)cc(OC)c1` : 63

inhibition reading for `COc1ccc(-c2nnc(NC(=O)c3ccc(SC)cc3)o2)cc1` : -3

----------
tested on: PriA–SSB C-terminal tail interaction (Klebsiella pneumoniae); assay: blocks PriA binding to SSB C-terminal tail, primary screen, biochemical, AlphaScreen (AID 1272365); conditions: AlphaScreen SSBct-PriA binding, biotinylated peptide; at 33 µM;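 on inhibition: plate controls were negative control peptide for no effect and reference peptide for full effect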
Out of some 430,000 compounds screened, about 2,600 (0.6%) were called active. Cut-off read from the data, not from the text of the source: active = inhibition mostly above about 37% (no sharp cut-off); inactive = mostly below about 20%. What follows is part of a selection rich in actives, with near analogues and random picks from the rest.
Choose one outcome from this list and give only that: active, inactive

Hi, do you know how `O=C(NCc1cccs1)NCc1cccnc1-c1ccsc1` came out in this test?
inactive

Hi, do you know how `Cc1ccc(C)c(CSc2nnc3n(C)c(=O)c4ccc(C(=O)NC5CCCC5)cc4n23)c1` came out in this test?
inactive

Hi, do you know how `CCOc1ccc(-c2ccc(=O)n(CCNC(=O)C3CC3)n2)cc1` came out in this test?
inactive

Hi, do you know how `COc1cc2nc(N(CCN(C)C)C(=O)c3ccc(S(=O)(=O)N(C)Cc4ccccc4)cc3)sc2cc1OC` came out in this test?
inactive

Hi, do you know how `COC(=O)c1ccccc1NC(=O)c1snnc1C` came out in this test?
inactive

Hi, do you know how `CC(C)NC(=O)c1ccc(Sc2ccccc2)c([N+](=O)[O-])c1` came out in this test?
inactive

Hi, do you know how `CC(C)CCN1C(=O)C(C)(C)COc2cc(NC(=O)CN3C(=O)c4ccccc4C3=O)ccc21` came out in this test?
inactive

Hi, do you know how CN1CCc2cc(C(CNC(=O)C(=O)Nc3ccccc3F)N(C)C)ccc21 (stereo not given) came out in this test?
inactive

Hi, do you know how `CC(=O)Nc1cccc(C(C)=NNc2ccc(S(=O)(=O)Nc3ccccc3C(=O)O)cc2[N+](=O)[O-])c1` came out in this test?
inactive

Hi, do you know how `Cc1cc(=O)[nH]c(-n2ncc(C(=O)Nc3ccc(OC(F)(F)F)cc3)c2C)n1` came out in this test?
inactive

Hi, do you know how `COc1ccc(/C=N/Nc2ccccc2[N+](=O)[O-])c(C(=O)O)c1OC` came out in this test?
inactive

Hi, do you know how `Cc1ccc(NC(=O)CCc2csc(NC(=O)c3ccc(=O)[nH]c3)n2)cc1Cl` came out in this test?
inactive

Hi, do you know how `COc1ccc2nc(N(CCN3CCOCC3)C(=O)c3ccccc3S(C)(=O)=O)sc2c1` came out in this test?
inactive

Hi, do you know how `Cc1cc(C)c(S(=O)(=O)NCCC(=O)NCc2cccnc2)cc1N(C)S(C)(=O)=O` came out in this test?
inactive

Hi, do you know how `O=C(NCCn1ccnc1-c1ncccn1)NCc1cccs1` came out in this test?
active

Hi, do you know how `COc1cc(NC(=O)CSc2nccn3nc(-c4ccc(Cl)cc4)cc23)cc(OC)c1` came out in this test?
inactive

Hi, do you know how `O=S(=O)(NCc1cc(C2CC2)n(C2CCCC2)n1)c1ccc(Br)s1` came out in this test?
inactive

Hi, do you know how `Cc1noc(C)c1CC(=O)NCCn1cnc2ccsc2c1=O` came out in this test?
inactive

Hi, do you know how `Cc1ccc(NS(=O)(=O)c2ccc(N/N=C/c3ccccc3OCC(=O)O)c([N+](=O)[O-])c2)c(C)c1` came out in this test?
active

Hi, do you know how `CCOc1ccc2nc(N(CCN(C)C)C(=O)c3ccc(S(=O)(=O)N4CCC(C)CC4)cc3)sc2c1` came out in this test?
inactive

----------
system: PriA–SSB C-terminal tail interaction (Klebsiella pneumoniae); assay: blocks PriA binding to SSB C-terminal tail, primary screen, biochemical, AlphaScreen (AID 1272365); conditions: AlphaScreen SSBct-PriA binding, biotinylated peptide; at 33 µM, stronger effect = higher value;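 on inhibition: plate controls were negative control peptide for no effect and reference peptide for full effect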
About 2,600 (0.6%) of roughly 430,000 compounds were called active. What follows is part of a selection rich in actives, with near analogues and random picks from the rest.
Assign class by inhibition: not lower than 10% means MET; lower than 10% means NOT MET.

Quick check: does `O=[N+]([O-])c1ccc(C=NN2CCN(c3ccc(Cl)cc3)CC2)cc1` have inhibition greater than or equal to 10%?
NOT MET

Quick check: does `CCCCC[n+]1ccn(C2=C([O-])c3ccccc3C(=O)C2=NS(=O)(=O)c2ccccc2)c1` have inhibition greater than or equal to 10%?
NOT MET

Quick check: does `CC(=O)N(C)c1ccc(OC[C@@H](O)CN(c2ccc(C)cc2)S(=O)(=O)c2ccc(C)cc2)cc1` have inhibition greater than or equal to 10%?
NOT MET

Quick check: does `CN(C)CCN(C(=O)c1cc2cc([N+](=O)[O-])ccc2s1)c1nc2cc3c(cc2s1)OCO3` have inhibition greater than or equal to 10%?
MET

Quick check: does `Cc1cccc(N2CCN(C(=O)CCc3csc4nc(-c5ccccc5)cn34)CC2)c1` have inhibition greater than or equal to 10%?
NOT MET

Quick check: does COC1(CNC(=O)C2CCN(S(C)(=O)=O)CC2)CCSC1 (stereo unspecified) have inhibition greater than or equal to 10%?
NOT MET

Quick check: does `O=C(c1ccc([N+](=O)[O-])o1)N1CCN(c2ncnc3c2nnn3-c2cccc(F)c2)CC1` have inhibition greater than or equal to 10%?
NOT MET

Quick check: does `Cc1cc(NC(=O)CSc2nnc(CNC(=O)c3cccs3)o2)no1` have inhibition greater than or equal to 10%?
NOT MET

Quick check: does `CC1CCN(c2nc(-c3ccccn3)nc3ccccc23)CC1` have inhibition greater than or equal to 10%?
MET

Quick check: does `Cc1ccc(OCc2ccc(-c3nc(C#N)c(N4CCCCCC4)o3)o2)cc1` have inhibition greater than or equal to 10%?
MET

Quick check: does CC1CCCC(C)N1N=Cc1ccc([N+](=O)[O-])cc1 (stereo unspecified) have inhibition greater than or equal to 10%?
MET

Quick check: does `CN(C)CC#CCNC(=O)c1c(F)cccc1Cl` have inhibition greater than or equal to 10%?
NOT MET

Quick check: does `CCCOc1ccc(-c2nc(C#N)c(N3CCCCC3)o2)cc1` have inhibition greater than or equal to 10%?
MET

Quick check: does `CC(C)(CC(=O)NCc1ccc(F)cc1)CC1=NS(=O)(=O)c2ccccc2N1` have inhibition greater than or equal to 10%?
NOT MET

Quick check: does O=C(C1CC=CCC1)N1CCCC(S(=O)(=O)c2ccc(F)cc2)C1 (stereo unspecified) have inhibition greater than or equal to 10%?
NOT MET

----------
test system: PriA–SSB C-terminal tail interaction (Klebsiella pneumoniae); assay: blocks PriA binding to SSB C-terminal tail, primary screen, biochemical, AlphaScreen (AID 1272365); settings: AlphaScreen SSBct-PriA binding, biotinylated peptide; at 33 µM, stronger effect = higher value;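 on inhibition: plate controls were negative control peptide for no effect and reference peptide for full effect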
Hit rate of the full screen: of about 430,000 compounds, about 2,600 (0.6%) were called active. The entries come from a sample that favours actives as a whole.
observable: inhibition (%)
State the answer as a number, implicitly in %.

inhibition reading for `CN1CCC(=O)N([C@H](CO)Cc2ccccc2)CC1` : -2.41

inhibition reading for `O=C(Oc1ccc(C(=S)N2CCOCC2)cc1)c1ccc(F)cc1` : -4.78

inhibition reading for `Cc1cc(-c2csc(Nc3ccccn3)n2)c(C)o1` : 2

inhibition reading for `Cc1ccccc1OCC(=O)NCCCS(=O)(=O)N1CCc2ccccc2C1` : -9

inhibition reading for `CCc1ccccc1NC(=O)NCCOc1ccc2nnc(-c3cccc(F)c3)n2n1` : -4

inhibition reading for `NC(=O)c1ccccc1NC(=O)c1cccn(Cc2cccc(F)c2)c1=O` : 4

inhibition reading for O=C(Nc1nnc(C2CCCO2)o1)c1cc2ccccc2oc1=O (stereo not given) : 4

inhibition reading for `C=CCNC(=S)NN=C(C)c1cc(OC)c(OC)c(OC)c1` : -5.43

inhibition reading for `O=C(Nc1nc2c(s1)CN(Cc1ccccc1)CC2)c1cc(Cl)sc1Cl` : 23

inhibition reading for `CC(CCC(C)C)=NNc1ccc(S(N)(=O)=O)cc1[N+](=O)[O-]` : 42.4

inhibition reading for `COc1cc2nc(SCc3cc(=O)n4cc(Cl)ccc4n3)n3nc(C)nc3c2cc1OC` : -5

inhibition reading for `O[C@H](c1ccncc1)c1c(-c2ccccc2)[nH]c2ccccc12` : 2

inhibition reading for O=C(COc1ccc(Cl)cc1Cl)Nc1nnc(C2CCCO2)o1 (stereo not given) : 63

inhibition reading for `CC(C)Oc1ccc(C(=O)Nc2cc(=O)n(C)c(=O)n2C)cc1` : -9.4

inhibition reading for O=C(Nc1nnc(C2CCCO2)o1)c1sc2ccccc2c1Cl (stereo not given) : 34

inhibition reading for `CCSc1ccccc1C(=O)N1CCN(c2ccc(-c3ccccn3)nn2)CC1` : 161

inhibition reading for `Cc1cc(=O)n(C)c(=O)n1CCCNc1ccccc1` : -14.1

inhibition reading for `COc1ccccc1C(=O)N1CCN=C1SCc1cccnc1` : -0.73

inhibition reading for `Cc1ccc(NC(=O)COC(=O)CCc2nc3ccccc3n2-c2ccccc2)c(C)c1` : 4.81

inhibition reading for `COc1ccc(OC)c(NC(=O)c2ccc(S(=O)(=O)NC3CC3)cc2)c1` : 16

inhibition reading for `CS(=O)(=O)N1CCN(C(=O)c2cnn3c2OCCC3)CC1` : 6

inhibition reading for CC(=NNC(=O)C(c1ccncc1)N1CCOCC1)c1ccc(Br)cc1 (stereo not given) : 1.79

inhibition reading for `O=C(c1cc2n(n1)CCCO2)N1CCN(Cc2cccnc2)CC1` : -17

inhibition reading for `Cc1nc(N2CCCC2)nc(C)c1NC(=O)c1cccc(Cl)c1` : -6

inhibition reading for `COc1cc([N+](=O)[O-])cc(C=NNC(=O)c2ccc(C)nc2)c1O` : 79.7

inhibition reading for `NC(=O)C1CCN(C(=O)N[C@H]2CC(=O)N(c3ccc(F)cc3)C2)CC1` : 2

inhibition reading for `CCN(c1ccc(NC(=O)COC(=O)CCc2nc3ccccc3n2-c2ccccc2)cc1)C(C)C` : 55.2

inhibition reading for `O=C(NCc1ccc2c(c1)OCO2)C(=O)NC[C@H](O)c1cccc2ccccc12` : -1

inhibition reading for `Cc1ccc(C(=O)Oc2ccc(C(=S)N3CCOCC3)cc2)cc1` : -12.7

inhibition reading for `Cn1c(Nc2ccccc2)cc(=O)n(C)c1=O` : 43.6

inhibition reading for `COC(=O)c1ccc(S(=O)(=O)NCC2(c3ccc(F)cc3)CC2)cc1` : -24

inhibition reading for `O=C(COc1ccccc1)N1CCN(c2ccc(-c3ccco3)nn2)CC1` : -12

inhibition reading for `CC(=O)c1c(C)n(-c2ccc(C)cc2)c2ccc(O)cc12` : -0.78

inhibition reading for `COc1cccc(OC)c1C(=O)N1CCN(Cc2cccnc2)CC1` : 49

inhibition reading for CCSc1ccccc1C(=O)N1CCN(C(=O)C2CC2c2ccccc2)CC1 (stereo not given) : -7

inhibition reading for O=C(c1cc(Cl)cc(Cl)c1)N1CCC(=O)N(C(COCc2ccccc2)Cc2ccccc2)CC1 (stereo not given) : 44.6

inhibition reading for `CC(=O)Nc1ccc(N2C(=O)c3cccc4cccc(c34)C2=O)cc1` : 5

inhibition reading for `Cc1cc(C(=O)OCC(=O)NCc2ccco2)c(C)n1-c1ccccc1` : -5.93

inhibition reading for `NS(=O)(=O)c1ccc(CNC(=O)c2ccc(Cl)cc2[N+](=O)[O-])cc1` : -24.6

inhibition reading for `CN(C)[C@@H](CNC(=O)C(=O)Nc1ccc(F)c(Cl)c1)c1ccco1` : -17

inhibition reading for `Cc1cnc2n(c1=O)C[C@H](C(=O)Nc1ccc(OC(F)(F)F)cc1)CS2` : -1

inhibition reading for `O=C([C@@H]1CC=CCC1)N1CCN(c2ccc(-n3cncn3)nn2)CC1` : -9

inhibition reading for `O=C(Nc1ccccc1-c1ccc(=O)[nH]n1)c1ccncc1` : -12

inhibition reading for `CCOc1ccccc1C(=O)N1CCC(Oc2cccc(C)n2)CC1` : -8

inhibition reading for `O=C(Oc1cccc(C(=S)N2CCOCC2)c1)c1cccc(Cl)c1` : 45.9
